Reference source: ChEMBL document CHEMBL1149349

# target-desc: Prostaglandin E2 receptor EP3 subtype (Homo sapiens) (UniProt P43115)
# Sequence (P43115 whole entry, looked up): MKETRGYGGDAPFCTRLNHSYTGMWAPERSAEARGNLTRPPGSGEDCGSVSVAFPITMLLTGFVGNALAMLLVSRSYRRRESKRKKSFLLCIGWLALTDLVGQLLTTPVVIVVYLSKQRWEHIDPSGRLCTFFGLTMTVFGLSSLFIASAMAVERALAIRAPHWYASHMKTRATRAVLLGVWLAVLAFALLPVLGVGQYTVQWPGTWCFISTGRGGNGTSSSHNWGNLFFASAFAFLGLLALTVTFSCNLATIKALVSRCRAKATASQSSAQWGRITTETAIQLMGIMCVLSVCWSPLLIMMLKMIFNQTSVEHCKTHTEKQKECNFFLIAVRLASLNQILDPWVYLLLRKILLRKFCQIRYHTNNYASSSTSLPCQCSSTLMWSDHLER
# assay-procedure: Inhibition of PGE2-induced intracellular Ca2+ mobilisation (FLIPR) at EP3 receptor expressed in CHO-K1 cells
observation-type: Ki

Examples with their reported Ki follow.
{"compound-smiles": "Cc1cc(C(=O)O)nn1Cc1cc(Cl)ccc1OCc1ccc(Cl)cc1Cl", "value-measured": "> 2000 nM"}
{"compound-smiles": "Cc1cc(C(=O)O)nn1Cc1cc(Cl)ccc1OCc1ccc(F)cc1F", "value-measured": "> 2000 nM"}
{"compound-smiles": "Cc1cc(C(=O)O)nn1Cc1cc(F)ccc1OCc1ccc(F)cc1F", "value-measured": "> 2000 nM"}

Turning now to a further record.
For Cc1cc(C(=O)O)nn1Cc1ccccc1OCc1ccc(Cl)cc1Cl the compound record lists Ki as > 2000 nM
